koff values by entry
systemName: T1, human soluble urokinase plasminogen activator receptor (suPAR) (human, UniProt Q03405 23-303, limits assumed)
T1 construct: Column head says only 'human'; also called hsuPAR; human suPAR
T1 sequence (Q03405 23-303 limits assumed): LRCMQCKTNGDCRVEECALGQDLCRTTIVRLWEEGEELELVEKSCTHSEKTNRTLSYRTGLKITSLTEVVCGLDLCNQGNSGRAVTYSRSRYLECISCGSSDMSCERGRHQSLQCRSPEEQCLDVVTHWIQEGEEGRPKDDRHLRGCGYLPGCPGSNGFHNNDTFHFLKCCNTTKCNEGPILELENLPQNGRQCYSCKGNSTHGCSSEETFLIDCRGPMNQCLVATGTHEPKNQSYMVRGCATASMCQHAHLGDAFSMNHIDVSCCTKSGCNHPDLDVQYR
assayOverview: BLI (Octet) off-rate screen of scFv clones
Hey, just the number and the unit after it is fine.

Example cases with answers are listed next.
suPAR_DB05_B06 (scFv, V domains shown, Screened as scFv) VH: QVQLVQSGAEVKKPGASVKVSCKASGYPFTNYYMHWVRQAPGQGLEWMGWIDHEGGSTIYDQKFQGRVTMTRDTSTSTVYMELSSLRSEDTAVYYCARGYDVDWFVYWGQGTLVTVSS VL: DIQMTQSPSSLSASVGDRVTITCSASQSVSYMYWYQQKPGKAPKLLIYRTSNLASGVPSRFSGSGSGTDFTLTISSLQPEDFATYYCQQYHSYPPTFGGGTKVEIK = 0.00213 s⁻¹
suPAR_DB05_B09 (scFv, V domains shown, Screened as scFv) VH: QVQLVQSGAEVKKPGASVKVSCKASGYTFTGYYMHWVRQAPGQGLEWMGWIDPSGGNTIYDQKFQGRVTMTRDTSTSTVYMELSSLRSEDTAVYYCARGYDVDWFVYWGQGTLVTVSS VL: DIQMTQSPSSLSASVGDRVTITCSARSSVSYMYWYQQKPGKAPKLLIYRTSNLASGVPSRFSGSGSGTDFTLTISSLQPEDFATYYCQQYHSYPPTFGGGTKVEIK = 0.00273 s⁻¹
suPAR_DB05_B12 (scFv, V domains shown, Screened as scFv) VH: QVQLVQSGAEVKKPGASVKVSCKASGYTFTNYYMHWVRQAPGQGLEWMGWIDPENGNTIYAQKFQGRVTMTRDTSTSTVYMELSSLRSEDTAVYYCARGYDVDWFVYWGQGTLVTVSS VL: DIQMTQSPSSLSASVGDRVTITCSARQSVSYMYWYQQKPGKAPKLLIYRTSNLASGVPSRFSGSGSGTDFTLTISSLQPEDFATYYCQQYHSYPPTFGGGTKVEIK = 0.00472 s⁻¹
suPAR_DB04_H07 (scFv, V domains shown, Screened as scFv) VH: QVQLVQSGAEVKKPGASVKVSCKASGYTFTSYYMHWVRQAPGQGLEWMGWIDHENGNTSYDQKFQGRVTMTRDTSTSTVYMELSSLRSEDTAVYYCARGYDVDWFVYWGQGTLVTVSS VL: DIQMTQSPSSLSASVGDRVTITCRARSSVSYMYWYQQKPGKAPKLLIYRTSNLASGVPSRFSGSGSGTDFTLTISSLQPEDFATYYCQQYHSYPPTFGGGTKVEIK = 0.00511 s⁻¹
suPAR_DB05_D11 (scFv, V domains shown, Screened as scFv) VH: QVQLVQSGAEVKKPGASVKVSCKASGYTLTGYYMQWVRQAPGQGLEWMGWIDPENGSTIYDQKFQGRVTMTRDTSTSTVYMELSSLRSEDTAVYYCARGYDVDWFVYWGQGTLVTVSS VL: DIQMTQSPSSLSASVGDRVTITCSASSSVSYMYWYQQKPGKAPKLLIYRTSNLASGVPSRFSGSGSGTDFTLTISSLQPEDFATYYCQQYHSYPPTFGGGTKVEIK = 0.00555 s⁻¹
suPAR_DB05_C06 (scFv, V domains shown, Screened as scFv) VH: QVQLVQSGAEVKKPGASVKVSCKASGFNIKSYYIHWVRQAPGQGLEWMGWIDPNSGGTNYAQKFQGRVTMTRDTSTSTVYMELSSLRSEDTAVYYCARGYDVDWFVYWGQGTLVTVSS VL: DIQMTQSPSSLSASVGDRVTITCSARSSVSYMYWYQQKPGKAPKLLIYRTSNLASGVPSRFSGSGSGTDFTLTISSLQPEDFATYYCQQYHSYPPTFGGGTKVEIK = 0.00507 s⁻¹
suPAR_DB05_D10 (scFv, V domains shown, Screened as scFv) VH: QVQLVQSGAEVKKPGASVKVSCKASGYTFSNYYIHWVRQAPGQGLEWMGWIDHENGNTIYDQKFQGRVTMTRDTSTSTVYMELSSLRSEDTAVYYCARGTDVDWFVYWGQGTLVTVSS VL: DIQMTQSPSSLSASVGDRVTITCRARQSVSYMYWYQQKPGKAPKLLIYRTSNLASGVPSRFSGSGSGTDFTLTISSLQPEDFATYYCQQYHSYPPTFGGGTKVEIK = 0.006 s⁻¹
suPAR_DB04_H05 (scFv, V domains shown, Screened as scFv) VH: QVQLVQSGAEVKKPGASVKVSCKASGHTLNSYYMHWVRQAPGQGLEWMGWIDPEGGNTIYAQKFQGRVTMTRDTSTSTVYMELSSLRSEDTAVYYCARGYDVDWFVYWGQGTLVTVSS VL: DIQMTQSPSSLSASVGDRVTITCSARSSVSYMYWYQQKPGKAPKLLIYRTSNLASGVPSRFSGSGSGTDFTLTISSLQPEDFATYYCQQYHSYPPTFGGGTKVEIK = 0.00584 s⁻¹
suPAR_DB05_C05 (scFv, V domains shown, Screened as scFv) VH: QVQLVQSGAEVKKPGASVKVSCKASGYNIKSYYIHWVRQAPGQGLEWMGWIDPNSGGTNYAQNFQGRVTMTRDTSTSTVYMELSSLRSEDTAVYYCARGYDVDWFVYWGQGTLVTVSS VL: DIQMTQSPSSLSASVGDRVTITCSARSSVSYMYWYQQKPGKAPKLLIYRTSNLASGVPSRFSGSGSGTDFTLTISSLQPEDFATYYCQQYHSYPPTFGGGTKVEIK = 0.00547 s⁻¹
suPAR_DB05_E03 (scFv, V domains shown, Screened as scFv) VH: QVQLVQSGAEVKKPGASVKVSCKASGHTLNSYYIHWVRQAPGQGLEWMGWIDPSGGNTIYDQKFQGRVTMTRDTSTSTVYMELSSLRSEDTAVYYCARGYDVDWFVYWGQGTLVTVSS VL: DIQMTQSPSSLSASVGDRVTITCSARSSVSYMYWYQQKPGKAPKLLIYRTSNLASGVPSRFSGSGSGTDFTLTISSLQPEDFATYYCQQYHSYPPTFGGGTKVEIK = 0.00535 s⁻¹

// sample suPAR_DB05_C09 (scFv, V domains shown, Screened as scFv) VH: QVQLVQSGAEVKKPGASVKVSCKASGYTFTGYYMHWVRQAPGQGLEWMGWISPDSGATKVAQKFQGRVTMTRDTSTSTVYMELSSLRSEDTAVYYCARGYDVDWFVYWGQGTLVTVSS VL: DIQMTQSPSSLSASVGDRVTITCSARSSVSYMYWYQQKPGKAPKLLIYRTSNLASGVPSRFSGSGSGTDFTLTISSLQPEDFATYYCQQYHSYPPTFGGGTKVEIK , its koff was 0.00384 s⁻¹
